Values were extracted from paper PMC7859889.

test system: HLA-B HiBit cells; experiment: CellTiter-Glo; details: cytotoxicity, 4.0 ng/ml IFN-β, 24 hours

>  <molecule>
C[C@]12C=CC(=O)C=C1CC[C@@H]1[C@@H]2[C@@H](O)C[C@@]2(C)[C@H]1CC[C@]2(O)C(=O)CO [Prednisolone]

>  <CTG Curve class>
4

$$$$
>  <molecule>
CCS(=O)(=O)N1CC(CC#N)(n2cc(-c3ncnc4[nH]ccc34)cn2)C1 [Baricitinib, baricitinib]

>  <CTG Curve class>
4

$$$$
>  <molecule>
COc1ccc(-c2nc(N3CCOCC3)c3sc(CN(C)c4ncc(C(=O)NO)cn4)cc3n2)cn1 [CUDC-907]

>  <CTG Curve class>
−1b

$$$$
>  <molecule>
C[C@@H]1CCN(C(=O)CC#N)C[C@@H]1N(C)c1ncnc2[nH]ccc12 [Tofacitinib, tofacitinib]

>  <CTG Curve class>
4

$$$$

====

tested on: C25cl48 cells; assay: IF cell count cytotoxicity; type: cell-based, human; details: IF cell count cytotoxicity, C25cl48 cells
Where a name gives a salt, the structure may show the parent alone.
Here the recorded Cell count Curve class is given for each entry.

>  <compound>
Cc1[nH]c2ccccc2c1CCNCc1ccc(/C=C/C(=O)NO)cc1

>  <Cell count Curve class>
4

$$$$
>  <compound>
Cc1sc2c(c1C)C(c1ccc(Cl)cc1)=N[C@@H](CC(=O)Nc1ccc(OCCOCCOCCOCCNc3cccc4c3C(=O)N(C3CCC(=O)NC3=O)C4=O)cc1)c1nnc(C)n1-2 (stereo partly drawn)

>  <Cell count Curve class>
4

$$$$
>  <compound>
N#CC[C@H](C1CCCC1)n1cc(-c2ncnc3[nH]ccc23)cn1

>  <Cell count Curve class>
4

$$$$
>  <compound>
CS[C@H]1SC[C@H]2C(=O)N(C)[C@@H](C(C)C)C(=O)OC[C@@H](NC(=O)c3cnc4ccccc4n3)C(=O)N[C@@H](C)C(=O)N(C)[C@@H]1C(=O)N(C)[C@@H](C(C)C)C(=O)OC[C@@H](NC(=O)c1cnc3ccccc3n1)C(=O)N[C@@H](C)C(=O)N2C

>  <Cell count Curve class>
4

$$$$
>  <compound>
C[C@@H]1CCN(C(=O)CC#N)C[C@@H]1N(C)c1ncnc2[nH]ccc12

>  <Cell count Curve class>
4

$$$$
>  <compound>
CCS(=O)(=O)N1CC(CC#N)(n2cc(-c3ncnc4[nH]ccc34)cn2)C1

>  <Cell count Curve class>
4

$$$$
>  <compound>
CC(C)[C@]12O[C@H]1[C@@H]1O[C@@]13[C@@]1(C)CCC4=C(COC4=O)[C@@H]1C[C@@H]1O[C@@]13C2=O [Triptonide, triptonide]

>  <Cell count Curve class>
4

$$$$
>  <compound>
COc1cccc2c1C(=O)c1c(O)c3c(c(O)c1C2=O)C[C@@](O)(C(=O)CO)C[C@@H]3O[C@H]1C[C@H](N2CCO[C@H](OC)C2)[C@H](O)[C@H](C)O1

>  <Cell count Curve class>
4

$$$$
>  <compound>
CCc1cnn2c(NCc3ccc[n+]([O-])c3)cc(N3CCCC[C@H]3CCO)nc12

>  <Cell count Curve class>
4

$$$$
>  <compound>
COc1ccc(-c2nc(N3CCOCC3)c3sc(CN(C)c4ncc(C(=O)NO)cn4)cc3n2)cn1

>  <Cell count Curve class>
−3

$$$$
>  <compound>
CCN(CC)Cc1ccc2cc(COC(=O)Nc3ccc(C(=O)NO)cc3)ccc2c1 [Givinostat HCl, Givinostat]

>  <Cell count Curve class>
−3

$$$$
>  <compound>
C[C@]12C=CC(=O)C=C1CC[C@@H]1[C@@H]2[C@@H](O)C[C@@]2(C)[C@H]1CC[C@]2(O)C(=O)CO

>  <Cell count Curve class>
4

$$$$

====

system: HLA-B mRNA; test: HLA-B RT-qPCR tertiary assay; format: cell-based, human; conditions: Homo sapiens, read-out: RT-qPCR Efficacy
Where a name gives a salt, the structure may show the parent alone.

>  <compound>
CCS(=O)(=O)N1CC(CC#N)(n2cc(-c3ncnc4[nH]ccc34)cn2)C1

>  <Emax / %>
100

$$$$
>  <compound>
N#CC[C@H](C1CCCC1)n1cc(-c2ncnc3[nH]ccc23)cn1

>  <Emax / %>
115

$$$$
>  <compound>
C[C@@H]1CCN(C(=O)CC#N)C[C@@H]1N(C)c1ncnc2[nH]ccc12

>  <Emax / %>
83

$$$$
>  <compound>
Cc1[nH]c2ccccc2c1CCNCc1ccc(/C=C/C(=O)NO)cc1

>  <Emax / %>
68

$$$$
>  <compound>
CCN(CC)Cc1ccc2cc(COC(=O)Nc3ccc(C(=O)NO)cc3)ccc2c1 [Givinostat HCl, Givinostat]

>  <Emax / %>
100

$$$$
>  <compound>
CCc1cnn2c(NCc3ccc[n+]([O-])c3)cc(N3CCCC[C@H]3CCO)nc12

>  <Emax / %>
117

$$$$
>  <compound>
C[C@]12C=CC(=O)C=C1CC[C@@H]1[C@@H]2[C@@H](O)C[C@@]2(C)[C@H]1CC[C@]2(O)C(=O)CO

>  <Emax / %>
14

$$$$
>  <compound>
CS[C@H]1SC[C@H]2C(=O)N(C)[C@@H](C(C)C)C(=O)OC[C@@H](NC(=O)c3cnc4ccccc4n3)C(=O)N[C@@H](C)C(=O)N(C)[C@@H]1C(=O)N(C)[C@@H](C(C)C)C(=O)OC[C@@H](NC(=O)c1cnc3ccccc3n1)C(=O)N[C@@H](C)C(=O)N2C

>  <Emax / %>
112

$$$$
>  <compound>
COc1cccc2c1C(=O)c1c(O)c3c(c(O)c1C2=O)C[C@@](O)(C(=O)CO)C[C@@H]3O[C@H]1C[C@H](N2CCO[C@H](OC)C2)[C@H](O)[C@H](C)O1

>  <Emax / %>
133

$$$$
>  <compound>
COc1ccc(-c2nc(N3CCOCC3)c3sc(CN(C)c4ncc(C(=O)NO)cn4)cc3n2)cn1

>  <Emax / %>
73

$$$$

====

test system: HLA-B HiBit cells; assay: CellTiter-Glo; conditions: cytotoxicity, 4.0 ng/ml IFN-β, 24 hours
Counter-ions that a name gives are not always drawn.

>  <compound>
Cc1[nH]c2ccccc2c1CCNCc1ccc(/C=C/C(=O)NO)cc1

>  <CTG Curve class>
−3

$$$$
>  <compound>
CCc1cnn2c(NCc3ccc[n+]([O-])c3)cc(N3CCCC[C@H]3CCO)nc12

>  <CTG Curve class>
4

$$$$
>  <compound>
CCN(CC)Cc1ccc2cc(COC(=O)Nc3ccc(C(=O)NO)cc3)ccc2c1 [Givinostat HCl, Givinostat]

>  <CTG Curve class>
−3

$$$$
>  <compound>
COc1cccc2c1C(=O)c1c(O)c3c(c(O)c1C2=O)C[C@@](O)(C(=O)CO)C[C@@H]3O[C@H]1C[C@H](N2CCO[C@H](OC)C2)[C@H](O)[C@H](C)O1

>  <CTG Curve class>
4

$$$$
>  <compound>
N#CC[C@H](C1CCCC1)n1cc(-c2ncnc3[nH]ccc23)cn1

>  <CTG Curve class>
4

$$$$
>  <compound>
CS[C@H]1SC[C@H]2C(=O)N(C)[C@@H](C(C)C)C(=O)OC[C@@H](NC(=O)c3cnc4ccccc4n3)C(=O)N[C@@H](C)C(=O)N(C)[C@@H]1C(=O)N(C)[C@@H](C(C)C)C(=O)OC[C@@H](NC(=O)c1cnc3ccccc3n1)C(=O)N[C@@H](C)C(=O)N2C

>  <CTG Curve class>
4

$$$$
>  <compound>
Cc1sc2c(c1C)C(c1ccc(Cl)cc1)=N[C@@H](CC(=O)Nc1ccc(OCCOCCOCCOCCNc3cccc4c3C(=O)N(C3CCC(=O)NC3=O)C4=O)cc1)c1nnc(C)n1-2 (some centres unmarked)

>  <CTG Curve class>
−1b

$$$$
>  <compound>
CC(C)[C@]12O[C@H]1[C@@H]1O[C@@]13[C@@]1(C)CCC4=C(COC4=O)[C@@H]1C[C@@H]1O[C@@]13C2=O [Triptonide, triptonide]

>  <CTG Curve class>
4

$$$$

====

system: HLA-B HiBit cells; test: CellTiter-Glo; conditions: Homo sapiens, 24 h, read-out: CTG IC50
pIC50: −log10 of the molar value.
parameter_measured: pIC50

>  <molecule>
COc1ccc(-c2nc(N3CCOCC3)c3sc(CN(C)c4ncc(C(=O)NO)cn4)cc3n2)cn1 [CUDC-907]

>  <assayed_system>
HLA-B HiBit cells

>  <observed_value>
5.46

$$$$

====

The entries below are paired with their reported IC50.
system: HLA-ABC; test: HLA-ABC immunofluorescence; format: cell-based, human; settings: Homo sapiens, read-out: Immunofluorescence IC50
parameter_measured: IC50 (nM)

>  <molecule>
COc1ccc(-c2nc(N3CCOCC3)c3sc(CN(C)c4ncc(C(=O)NO)cn4)cc3n2)cn1 [CUDC-907]

>  <parameter_measured>
IC50

>  <unit_info>
nM

>  <observed_value>
5.8

$$$$
>  <molecule>
Cc1[nH]c2ccccc2c1CCNCc1ccc(/C=C/C(=O)NO)cc1 [Panobinostat, panobinostat]

>  <parameter_measured>
IC50

>  <unit_info>
nM

>  <observed_value>
28

$$$$
>  <molecule>
CS[C@H]1SC[C@H]2C(=O)N(C)[C@@H](C(C)C)C(=O)OC[C@@H](NC(=O)c3cnc4ccccc4n3)C(=O)N[C@@H](C)C(=O)N(C)[C@@H]1C(=O)N(C)[C@@H](C(C)C)C(=O)OC[C@@H](NC(=O)c1cnc3ccccc3n1)C(=O)N[C@@H](C)C(=O)N2C [Echinomycin, echinomycin]

>  <parameter_measured>
IC50

>  <unit_info>
nM

>  <observed_value>
4.1

$$$$
